Entry source: patent US20060074243A1

For each entry below, report its Ki value.
system.tested: Human recombinant MMP-9 (Homo sapiens)
Construct: made in house; host or cells: MMP-9-transfected HT1080 cells (spent media)
Sequence (P14780 107-707 limits assumed): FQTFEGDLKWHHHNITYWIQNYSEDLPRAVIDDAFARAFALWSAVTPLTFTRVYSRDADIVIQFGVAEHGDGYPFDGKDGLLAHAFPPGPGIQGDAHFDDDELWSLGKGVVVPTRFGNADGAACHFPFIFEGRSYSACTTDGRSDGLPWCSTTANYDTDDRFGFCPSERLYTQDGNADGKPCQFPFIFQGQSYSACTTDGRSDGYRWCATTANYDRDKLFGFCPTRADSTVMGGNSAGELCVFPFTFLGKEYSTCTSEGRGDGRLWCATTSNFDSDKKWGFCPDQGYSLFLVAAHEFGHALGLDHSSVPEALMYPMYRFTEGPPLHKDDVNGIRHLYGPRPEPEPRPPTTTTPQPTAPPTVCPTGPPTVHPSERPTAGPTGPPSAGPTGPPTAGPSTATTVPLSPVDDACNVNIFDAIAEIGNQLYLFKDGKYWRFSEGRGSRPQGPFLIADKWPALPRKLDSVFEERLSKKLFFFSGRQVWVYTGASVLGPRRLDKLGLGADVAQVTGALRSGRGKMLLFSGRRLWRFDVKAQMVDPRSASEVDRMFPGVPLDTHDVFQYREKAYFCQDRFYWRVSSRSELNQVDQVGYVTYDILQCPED
protocol.notes: In vitro MMP inhibition analysis (fluorogenic peptide substrate cleavage), Ki
Format: biochemical
conditions.used: Table 1
Response body: numeric value in nM, unit text excluded.

Query block: Ki for CCN1CCC(C(=O)NO)(S(=O)(=O)c2ccc(-c3ccc(CCCC(F)(F)F)cn3)cc2)CC1 [Example 53] ?
Result block: 1

Query block: Repeat for the following molecule: O=C(NO)C1(S(=O)(=O)c2ccc(-c3ccc(CCC(F)(F)C(F)(F)F)cc3)cc2)CCOCC1 [Example 41]
Result block: 0.937

Query block: Ok, now COCCN1CCC(C(=O)NO)(S(=O)(=O)c2ccc(-c3ccc(CCCC(F)(F)F)cn3)cc2)CC1 [Example 54]
Result block: 0.25

###

system.tested: Human recombinant MMP-14 (Homo sapiens)
Construct: The catalytic domain enzyme was expressed in E. coli inclusion bodies, solubilized in urea; made in house
protocol.notes: In vitro MMP inhibition analysis (fluorogenic peptide substrate cleavage), Ki
Format: biochemical
conditions.used: Table 2
pKi: −log10 of the molar value.
Answer each item with its documented pKi.

Query block: # pKi lookup, item O=C(NO)C1(S(=O)(=O)c2ccc(-c3cnc4ccccc4n3)cc2)CCOCC1
Result block: < 5.00

Query block: Could you do the same for CCCCc1cnc(-c2ccc(S(=O)(=O)C3(C(=O)NO)CCN(CCOC)CC3)cc2)cn1 , please?
Result block: < 5.00

Query block: Follow-up entry: O=C(NO)C1(S(=O)(=O)c2ccc(-c3cnc(CCCC(F)(F)F)cn3)cc2)CCN(C2CC2)CC1
Result block: < 5.00

Query block: Request: O=C(NO)C1(S(=O)(=O)c2ccc(-c3cnc(NCC4CC4)cn3)cc2)CCOCC1
Result block: < 5.60

Query block: Try O=C(NO)C1(S(=O)(=O)c2ccc(-c3cnc(CCC(F)(F)C(F)(F)F)nc3)cc2)CCOCC1 next.
Result block: < 5.00

Query block: Continue with O=C1c2ccccc2C(=O)N1CCCOc1cccc(-c2ccc(S(=O)(=O)C3(C(=O)NO)CCOCC3)cc2)c1
Result block: < 5.00

Query block: Ok, now O=C(NO)C1(S(=O)(=O)c2ccc(-c3cnc(N4CCCCC4)cn3)cc2)CCOCC1
Result block: 5.20

Query block: Now the compound CC(C)(C)CCNc1cnc(-c2ccc(S(=O)(=O)C3(C(=O)NO)CCOCC3)cc2)cn1
Result block: < 5.90

###

system.tested: Human recombinant MMP-13 (Homo sapiens)
Construct: made in house; host or cells: baculovirus / insect cells
protocol.notes: In vitro MMP inhibition analysis (fluorogenic peptide substrate cleavage), Ki
Type: biochemical
conditions.used: Table 2
For each record, write down the corresponding Ki.
Give the quantity in pM, number only.

Query block: Returns the measured Ki for the input molecule. Input: CCN1CCC(C(=O)NO)(S(=O)(=O)c2ccc(-c3noc(-c4ccc(C(F)(F)F)cc4)n3)cc2)CC1
Result block: 450

Query block: Next up: CCN1CCC(C(=O)NO)(S(=O)(=O)c2ccc(-c3cnc(CCCC(F)(F)F)cn3)cc2)CC1
Result block: 1200

Query block: Could you do the same for COC(C)CCOc1ccc(-c2ccc(S(=O)(=O)C3(C(=O)NO)CCOCC3)cc2)cc1C(F)(F)F (centres unmarked) , please?
Result block: 9400

Query block: Next molecule up: CCCCOc1ccc(-c2ccc(S(=O)(=O)C3(C(=O)NO)CCOCC3)cc2)cc1C(F)(F)F
Result block: 16600

Query block: Try this molecule next: O=C(NO)C1(S(=O)(=O)c2ccc(-c3ccc(-n4cncn4)cc3)cc2)CCOCC1
Result block: 48

Query block: Check CCc1ccc(-c2ccc(S(=O)(=O)C3(C(=O)NO)CCOCC3)cc2)cc1 too.
Result block: 91

Query block: Can you handle COCCC(C(=O)NO)S(=O)(=O)c1ccc(-c2ccc(CCC(F)(F)C(F)(F)F)cc2)cc1 (centres unmarked) next?
Result block: 820

Query block: Do the same for Cc1nc(CCc2ccc(-c3ccc(S(=O)(=O)C4(C(=O)NO)CCOCC4)cc3)cc2)no1 please
Result block: 111

Query block: What do you get for O=C(NO)C1(S(=O)(=O)c2ccc(-c3ccc(OCCCC(F)(F)F)cc3)cc2)CCOCC1 ?
Result block: 102

Query block: Item: CCCCOc1cnc(-c2ccc(S(=O)(=O)C3(C(=O)NO)CCOCC3)cc2)cn1
Result block: 28

Query block: Query CCOCCOc1ccc(-c2ccc(S(=O)(=O)C3(C(=O)NO)CCN(CCOC)CC3)cc2)cc1 next
Result block: 37

Query block: Moving on to the next molecule: O=C(NO)C1(S(=O)(=O)c2ccc(-c3cnc(OCC4CC4)cn3)cc2)CCOCC1
Result block: 60

Query block: // repeat for COCCOc1ccc(-c2ccc(S(=O)(=O)C3(C(=O)NO)CCN(C4CC4)CC3)cc2)cc1 and report
Result block: 31

Query block: What about this molecule? O=C(NO)C1(S(=O)(=O)c2ccc(-c3ccc(CCC(F)(C(F)(F)F)C(F)(F)F)cn3)cc2)CCOCC1
Result block: 2060

Query block: Param item: CCC(C)COc1ccc(-c2ccc(S(=O)(=O)C3(C(=O)NO)CCOCC3)cc2)cc1C(F)(F)F (centres unmarked)
Result block: 29700

Query block: Further, for O=C(NO)C1(S(=O)(=O)c2ccc(-c3cnccn3)cc2)CCOCC1 ?
Result block: 1730

Query block: Would you kindly repeat that for CCCCNc1cnc(-c2ccc(S(=O)(=O)C3(C(=O)NO)CCOCC3)cc2)cn1 ?
Result block: 1310
